# IC50 per record follows
- System: Ca1u-6 (Kras^Q61K)
- experiment-summary: Ca1u-6 (Kras^Q61K) antiproliferative activity (CellTiter Glo)
- Type: cell-based, human
- settings: Homo sapiens, Calu-6, 72 h, Ca1u-6 (Kras^Q61K) cells, three days, read-out: Calu-6 anti-proliferative activity IC50
measurement-name: IC50 (µM)

1. Cc1ccc(NC(=O)c2ccnc(C(F)(F)F)c2)cc1-c1cc(C23CCOCC2C3)cc(OCCO)n1 (stereo not shown) ... 1
2. Cc1ccc(NC(=O)c2ccnc(C(F)(F)F)c2)cc1-c1cc(OCCO)nc(C23CCOCC2(C#N)C3)c1 (stereo not shown) ... 3.5
3. Cc1ccc(NC(=O)c2ccnc(C(F)(F)F)c2)cc1-c1cc(OCCO)nc(C23COCC2C3)c1 (stereo not shown) ... 1.3
4. Cc1ccc(NC(=O)c2ccnc(C(F)(F)F)c2)cc1-c1cc(NCCO)nc(C23CCOCC2C3)c1 (stereo not shown) ... 1.4
5. Cc1ccc(NC(=O)c2ccnc(C(F)(F)F)c2)cc1-c1cc(OCCO)nc(C23CCOCC2C3(F)F)c1 (stereo not shown) ... 1.1
6. COC[C@@H](O)COc1cc(-c2cc(NC(=O)c3ccnc(C(F)(F)F)c3)ccc2C)cc(C23CCOCC2C3)n1 (stereo partly shown) ... 7.1
7. Cc1ccc(NC(=O)c2ccnc(C(F)(F)F)c2)cc1-c1cc(N2CC(O)C2)nc(C23CCOCC2C3)c1 (stereo not shown) ... 0.2
